Test system: human PBMCs
Assay: CD3/CD28 stimulated IL-2 release NECA reversal assay in human PBMCs
Type: cell-based
Settings: PBMC, 1 uM NECA, 24 hours, IL-2 in culture supernatant
Form field: IC50 (one value per entry).
Metric name: IC50 (nM)

>>> reported("Cc1cc(-c2sc(NC(=O)N3CCS(=N)(=O)CC3)nc2-c2cccc(C#N)c2)cc(C(F)F)n1")
6.7
>>> reported("Cc1cc(-c2sc(NC(=O)N3CCN(C)CC3)nc2-c2cccc(C#N)c2)cc(Cl)n1")
7.5
>>> reported("Cc1cc(-c2sc(NC(=O)N3CCC4(CC3)NC(=O)NC4=O)nc2-c2cccc(C#N)c2)cc(C)n1")
1.3
>>> reported("Cc1cc(-c2sc(NC(=O)N3CCC(N4CCNC4=O)CC3)nc2-c2cccc(C#N)c2)cc(C)n1")
6.9

###

Form field: Ki (one value per entry).
Target: human Adenosine A1 receptor (Homo sapiens (Human), UniProt P30542)
Sequence (P30542 whole entry): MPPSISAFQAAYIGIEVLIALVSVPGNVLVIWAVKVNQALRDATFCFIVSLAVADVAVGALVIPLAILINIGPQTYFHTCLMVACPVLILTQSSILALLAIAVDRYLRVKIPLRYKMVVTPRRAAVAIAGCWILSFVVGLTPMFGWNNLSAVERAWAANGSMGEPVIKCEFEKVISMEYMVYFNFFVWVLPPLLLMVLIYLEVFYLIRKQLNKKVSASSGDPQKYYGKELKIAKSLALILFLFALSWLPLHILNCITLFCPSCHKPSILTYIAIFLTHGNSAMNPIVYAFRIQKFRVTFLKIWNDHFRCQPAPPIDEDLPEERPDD
Test: Adenosine receptor TR-FRET binding assay (A1)
Settings: inhibition of binding of 100 nM CA200645, CHO cell membranes
Metric name: Ki (nM)

>>> reported("Cc1cc(-c2sc(NC(=O)N3CCOC[C@@H]3C)nc2-c2cccc(C#N)c2)cc(C)n1 [Example 6.86]")
2
>>> reported("Cc1cc(-c2sc(NC(=O)N3CC4(COC4)C3)nc2-c2cccc(C#N)c2)cc(C)[n+]1[O-] [Example 17]")
12
>>> reported("Cc1cc(-c2sc(NC(=O)N3CCC4(COC4)C3)nc2-c2cccc(C#N)c2)cc(C)n1 [Example 6.81]")
49
>>> reported("Cc1cc(-c2sc(NC(=O)N3CCN4C(=O)COCC4C3)nc2-c2cccc(C#N)c2)cc(C)n1 (stereo not shown) [Example 6.37]")
91

###

Target: human Adenosine A1 receptor (Homo sapiens (Human))
Test: Adenosine receptor TR-FRET binding assay (A1)
Settings: inhibition of binding of 100 nM CA200645, CHO cell membranes
API: label(entry) gives Condition met if the entry's Ki is strictly smaller than 20 nM; on equality or larger values it gives Condition not met.

>>> answer_label("Cc1cc(-c2sc(NC(=O)N3CCN(CC(C)(C)O)CC3)nc2-c2cccc(C#N)c2)cc(C)n1")
"Condition not met"
>>> answer_label("Cc1cc(-c2sc(NC(=O)N3CCN[C@@H](CO)C3)nc2-c2cccc(C#N)c2)cc(Cl)n1")
"Condition not met"
>>> answer_label("Cc1cc(-c2sc(NC(=O)N3C[C@@H](C)NC[C@@H]3C)nc2-c2cccc(C#N)c2)cc(C)n1 (relative stereo)")
"Condition not met"
>>> answer_label("Cc1cc(-c2sc(NC(=O)N3C[C@H]4COC[C@H]4C3)nc2-c2cccc(C#N)c2)cc(C)n1")
"Condition not met"
>>> answer_label("Cc1cc(-c2sc(NC(=O)N3CCC4(CC3)CNC(=O)C4)nc2-c2cccc(C#N)c2)cc(C)n1")
"Condition not met"
>>> answer_label("Cc1cc(-c2sc(NC(=O)N3CCOC[C@H]3C)nc2-c2cccc(C#N)c2)cc(C)n1")
"Condition not met"
>>> answer_label("Cc1cc(-c2sc(NC(=O)N3CCC(c4ncno4)CC3)nc2-c2cccc(C#N)c2)cc(C)n1")
"Condition met"
>>> answer_label("Cc1cc(-c2sc(NC(=O)N3CCC4(CCC(=O)N4)CC3)nc2-c2cccc(C#N)c2)cc(C)n1")
"Condition not met"
>>> answer_label("Cc1cc(-c2sc(NC(=O)N3CC[C@H](O)C3)nc2-c2cccc(C#N)c2)cc(C)n1")
"Condition met"
>>> answer_label("CC(=O)N=S1(=O)CCN(C(=O)Nc2nc(-c3cccc(C#N)c3)c(-c3cc(C)nc(C)c3)s2)CC1")
"Condition not met"
>>> answer_label("Cc1cc(-c2sc(NC(=O)N3CC[C@H](C#N)C3)nc2-c2cccc(C#N)c2)cc(C)n1")
"Condition met"
>>> answer_label("Cc1cc(-c2sc(NC(=O)N3CC[C@@H](C(C)(C)O)C3)nc2-c2cccc(C#N)c2)cc(CO)n1")
"Condition not met"
>>> answer_label("Cc1cc(-c2sc(NC(=O)N3CC(C)(C#N)C3)nc2-c2cccc(C#N)c2)cc(C)n1")
"Condition met"
>>> answer_label("Cc1cc(-c2sc(NC(=O)N3CCOC(C(C)(C)O)C3)nc2-c2cccc(C#N)c2)cc(C)n1 (stereo not drawn)")
"Condition not met"
>>> answer_label("Cc1cc(-c2sc(NC(=O)N3CCN[C@@H](C)C3)nc2-c2cccc(C#N)c2)cc(Cl)n1")
"Condition not met"

###

Target: human Adenosine A1 receptor (Homo sapiens (Human))
Assay: Adenosine receptor TR-FRET binding assay (A1)
Settings: inhibition of binding of 100 nM CA200645, CHO cell membranes
pKi: −log10 of the molar value.
Form field: pKi (one value per entry).
Metric name: pKi

>>> reported("CC(=O)N1C[C@H]2C[C@@H]1CN2C(=O)Nc1nc(-c2cccc(C#N)c2)c(-c2cc(C)nc(C)c2)s1")
7.52
>>> reported("Cc1cc(-c2sc(NC(=O)N3CCC4(CC3)CC(=O)N(C)C4)nc2-c2cccc(C#N)c2)cc(C)n1")
6.77
>>> reported("Cc1cc(-c2sc(NC(=O)N3CC(C(C)(C)O)C3)nc2-c2cccc(C#N)c2)cc(C)n1")
7.21
>>> reported("Cc1cc(-c2sc(NC(=O)N3CC4CN(C)CC43)nc2-c2cccc(C#N)c2)cc(C)n1 (stereo not drawn)")
6.91
>>> reported("Cc1cc(-c2sc(NC(=O)N3CC(CO)C3)nc2-c2cccc(C#N)c2)cc(C)n1")
7.85
>>> reported("Cc1cc(-c2sc(NC(=O)N3CCC(C#N)(C#N)CC3)nc2-c2cccc(C#N)c2)cc(C)n1")
7.59
>>> reported("CC(=O)Nc1cc(-c2sc(NC(=O)N3CC4(COC4)C3)nc2-c2cccc(C#N)c2)cc(C)n1")
6.86
>>> reported("Cc1cc(-c2sc(NC(=O)N3C[C@@H]4CNC(=O)[C@@H]4C3)nc2-c2cccc(C#N)c2)cc(C)n1")
6.92
>>> reported("Cc1cc(-c2sc(NC(=O)N3CC4(CCOC4)C3)nc2-c2cccc(C#N)c2)cc(C)n1")
6.96

###

Molecular target: human Adenosine A2a receptor (Homo sapiens (Human), UniProt P29274)
Sequence (P29274 whole entry): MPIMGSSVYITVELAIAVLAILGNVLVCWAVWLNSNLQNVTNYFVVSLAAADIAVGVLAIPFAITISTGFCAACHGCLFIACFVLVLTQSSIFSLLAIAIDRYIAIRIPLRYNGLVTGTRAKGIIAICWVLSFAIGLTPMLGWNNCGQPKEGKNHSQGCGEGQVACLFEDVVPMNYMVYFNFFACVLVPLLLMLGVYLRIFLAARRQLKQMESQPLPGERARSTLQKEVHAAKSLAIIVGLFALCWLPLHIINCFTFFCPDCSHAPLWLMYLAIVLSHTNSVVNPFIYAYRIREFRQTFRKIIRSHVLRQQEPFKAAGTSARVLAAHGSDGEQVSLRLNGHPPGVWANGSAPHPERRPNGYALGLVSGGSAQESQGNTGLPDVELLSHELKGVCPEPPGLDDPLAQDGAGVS
pKi: −log10 of the molar value.
Assign Yes whenever pKi does not fall below 9; assign No whenever it does.

>>> answer_label("Cc1cc(-c2sc(NC(=O)N3CCC(C(=O)O)CC3)nc2-c2cccc(C#N)c2)cc(C)n1")
"No"
>>> answer_label("Cc1cc(-c2sc(NC(=O)N3CCN(C)C(=O)C3)nc2-c2cccc(C#N)c2)cc(C)n1")
"No"
>>> answer_label("Cc1cc(-c2sc(NC(=O)N3CCC(C#N)(C(C)(C)O)CC3)nc2-c2cccc(C#N)c2)cc(C)n1")
"Yes"
>>> answer_label("Cc1cc(-c2sc(NC(=O)N3CCN(C4COC4)CC3)nc2-c2cccc(C#N)c2)cc(CO)n1")
"No"
>>> answer_label("Cc1cc(-c2sc(NC(=O)N3CCNC[C@H]3CO)nc2-c2cccc(C#N)c2)cc(C)n1")
"No"
>>> answer_label("COC1(C#N)CCN(C(=O)Nc2nc(-c3cccc(C#N)c3)c(-c3cc(C)nc(C)c3)s2)CC1")
"Yes"
>>> answer_label("Cc1cc(-c2sc(NC(=O)N3CCC(C)(C#N)CC3)nc2-c2cccc(C#N)c2)cc(C(C)(C)O)n1")
"Yes"
>>> answer_label("Cc1cc(-c2sc(NC(=O)N3CCN[C@@H](C(C)(C)O)C3)nc2-c2cccc(C#N)c2)cc(Cl)n1")
"No"
>>> answer_label("Cc1cc(-c2sc(NC(=O)N3CC(N(C)C)C3)nc2-c2cccc(C#N)c2)cc(C)n1")
"No"
>>> answer_label("Cc1cc(-c2sc(NC(=O)N3CC(C)(C#N)C3)nc2-c2cccc(C#N)c2)cc(C)n1")
"Yes"
>>> answer_label("Cc1cc(-c2sc(NC(=O)N3CC[S+]([O-])CC3)nc2-c2cccc(C#N)c2)cc(C#N)n1")
"No"
>>> answer_label("Cc1cc(-c2sc(NC(=O)N3CCC(C)(C#N)CC3)nc2-c2cccc(C#N)c2)cc(C2COC2)n1")
"Yes"
>>> answer_label("[2H]C([2H])([2H])c1cc(-c2sc(NC(=O)N3CCC(C)(C#N)CC3)nc2-c2cccc(C#N)c2)cc(C([2H])([2H])[2H])n1")
"Yes"
>>> answer_label("COc1cc(-c2sc(NC(=O)N3CCS(=N)(=O)CC3)nc2-c2cccc(C#N)c2)cc(C)n1")
"No"
>>> answer_label("Cc1cc(-c2sc(NC(=O)N3CCNCC3)nc2-c2cccc(C#N)c2)cc(C)n1")
"No"
>>> answer_label("Cc1cc(-c2sc(NC(=O)N3CCN4C(=O)CNC(=O)C4C3)nc2-c2cccc(C#N)c2)cc(C)n1 (stereo not shown)")
"No"
>>> answer_label("Cc1cc(-c2sc(NC(=O)N3CC4(COC4)C3)nc2-c2cccc(C#N)c2)cc(C(C)C)n1")
"Yes"
>>> answer_label("Cc1cc(-c2sc(NC(=O)N3CCC4(CCC(=O)NC4)CC3)nc2-c2cccc(C#N)c2)cc(C)n1")
"Yes"
